# Species: Cavia porcellus
# procedureText: Positive inotropic activity in electrically driven guinea pig atria assessed as maximal concentration required to increase in […]
# Type: functional
property: log10(Activity) (log10 of the value in µM/g)
Lab note - Activity converted to log10 from values in µM/g.

compound=C[C@]12CC/C(=N\O[C@@H]3CCNC3)C[C@@H]1/C(=N/O)C[C@@H]1[C@@H]2CC[C@]2(C)C(=O)CC[C@@H]12.Cl result=0.63
compound=C[C@]12CC/C(=N\OCCN)C[C@@H]1[C@@H](O[N+](=O)[O-])C[C@@H]1[C@@H]2CC[C@]2(C)C(=O)CC[C@@H]12.O=C(O)/C=C/C(=O)O result=0.99
compound=COC(=O)[C@H]1C[C@@H]2[C@H](CC[C@]3(C)C(=O)CC[C@@H]23)[C@@]2(C)CC/C(=N\O[C@@H]3CCNC3)C[C@H]12.Cl result=1.36
compound=CNCCCO/N=C1\CC[C@@]2(C)[C@H](C1)[C@@H](NC=O)C[C@@H]1[C@@H]2CC[C@]2(C)C(=O)CC[C@@H]12.Cl result=0.45
compound=CO/N=C1\C[C@@H]2[C@H](CC[C@]3(C)C(=O)CC[C@@H]23)[C@@]2(C)CC/C(=N\OCCN)C[C@H]12.Cl result=0.76

Value sought for every listed compound: log10(Activity).
1. C[C@]12CC/C(=N\O[C@@H]3CCNC3)C[C@@H]1[C@@H](C(N)=O)C[C@@H]1[C@@H]2CC[C@]2(C)C(=O)CC[C@@H]12.Cl
2. C#C[C@H]1C[C@@H]2[C@H](CC[C@]3(C)C(=O)CC[C@@H]23)[C@@]2(C)CC/C(=N\OCCN)C[C@H]12.Cl
3. C[C@]12CC/C(=N\O[C@@H]3CCNC3)C[C@@H]1[C@@H](CCO)C[C@@H]1[C@@H]2CC[C@]2(C)C(=O)CC[C@@H]12.Cl
4. C[C@]12CC/C(=N\OCCN)C[C@@H]1[C@@H](CCO)C[C@@H]1[C@@H]2CC[C@]2(C)C(=O)CC[C@@H]12.Cl
5. C[C@H]1O[C@@H](O[C@H]2[C@@H](O)C[C@H](O[C@H]3[C@@H](O)C[C@H](O[C@H]4CC[C@@]5(C)[C@H](CC[C@@H]6[C@@H]5C[C@@H](O)[C@]5(C)[C@@H](C7=CC(=O)OC7)CC[C@]65O)C4)O[C@@H]3C)O[C@@H]2C)C[C@H](O)[C@@H]1O [DIGOXIN]
6. C[C@]12CC/C(=N\OCCN)C[C@@H]1[C@@H](CO)C[C@@H]1[C@@H]2CC[C@]2(C)C(=O)CC[C@@H]12.Cl
7. C[C@]12CC/C(=N\OCCN)C[C@@H]1/C(=N/O)C[C@@H]1[C@@H]2CC[C@]2(C)C(=O)CC[C@@H]12.Cl
8. CNCCCO/N=C1\CC[C@@]2(C)[C@H](C1)/C(=N/O)C[C@@H]1[C@@H]2CC[C@]2(C)C(=O)CC[C@@H]12.Cl

[0.94, 1.00, 0.71, 1.23, -0.01, 0.87, 0.63, 1.18]

Value sought for every listed compound: log10(Activity).
1. CNCCCO/N=C1\CC[C@@]2(C)[C@H](C1)[C@@H](C)C[C@@H]1[C@@H]2CC[C@]2(C)C(=O)CC[C@@H]12.Cl
2. CNCCCO/N=C1\CC[C@@]2(C)[C@H](C1)[C@@H](CO)C[C@@H]1[C@@H]2CC[C@]2(C)C(=O)CC[C@@H]12.Cl
3. C[C@]12CC/C(=N\OCCN)C[C@@H]1[C@@H](NC=O)C[C@@H]1[C@@H]2CC[C@]2(C)C(=O)CC[C@@H]12.O=C(O)/C=C/C(=O)O

[1.26, 0.95, 1.43]

----------
Kindly supply the reported selectivity ratio values for the records listed here.
# procedureText: Therapeutic index, ratio of lethal dose to ED80 for inotropic activity in guinea pig
# Type: organism-based, Cavia porcellus
# measurementConditions: in vivo
Give bare numbers.

Worked set:
molecule=C[C@]12CC/C(=N\OCCN)C[C@@H]1[C@@H](O[N+](=O)[O-])C[C@@H]1[C@@H]2CC[C@]2(C)C(=O)CC[C@@H]12.O=C(O)/C=C/C(=O)O property="selectivity ratio" result=8
molecule="C[C@H]1O[C@@H](O[C@H]2[C@@H](O)C[C@H](O[C@H]3[C@@H](O)C[C@H](O[C@H]4CC[C@@]5(C)[C@H](CC[C@@H]6[C@@H]5C[C@@H](O)[C@]5(C)[C@@H](C7=CC(=O)OC7)CC[C@]65O)C4)O[C@@H]3C)O[C@@H]2C)C[C@H](O)[C@@H]1O [DIGOXIN]" property="selectivity ratio" result=3.2

# input for lookup
Recorded result, "C[C@]12CC/C(=N\OCCN)C[C@@H]1[C@@H](CCO)C[C@@H]1[C@@H]2CC[C@]2(C)C(=O)CC[C@@H]12.Cl" , selectivity ratio: 23

----------
# procedureText: Inhibition of dog kidney Na+K+-ATPase assessed as hydrolysis of [32P]ATP
# Design: species or system Canis lupus familiaris
pIC50: −log10 of the molar value.
Decide by pIC50: equal to or exceeding 6 means rule met, less means rule not met.

Field: example entries. Status: answers known.
compoundstring=C[C@@H]1C[C@@H]2[C@H](CC[C@]3(C)C(=O)CC[C@@H]23)[C@@]2(C)CC/C(=N\OCCN)C[C@H]12 assignedclass="rule not met"
compoundstring=CNCCCO/N=C1\CC[C@@]2(C)[C@H](C1)[C@@H](COC)C[C@@H]1[C@@H]2CC[C@]2(C)C(=O)CC[C@@H]12 assignedclass="rule not met"
compoundstring=CCO[C@H]1C[C@@H]2[C@H](CC[C@]3(C)C(=O)CC[C@@H]23)[C@@]2(C)CC/C(=N\OCCN)C[C@H]12 assignedclass="rule not met"
compoundstring=CNCCCO/N=C1\CC[C@@]2(C)[C@H](C1)C(=O)C[C@@H]1[C@@H]2CC[C@]2(C)C(=O)CC[C@@H]12 assignedclass="rule met"
compoundstring=C[C@]12CC/C(=N\O[C@@H]3CCNC3)C[C@@H]1/C(=N/O)C[C@@H]1[C@@H]2CC[C@]2(C)C(=O)CC[C@@H]12.Cl assignedclass="rule met"
compoundstring=C[C@H]1O[C@@H](O[C@H]2[C@@H](O)C[C@H](O[C@H]3[C@@H](O)C[C@H](O[C@H]4CC[C@@]5(C)[C@H](CC[C@@H]6[C@@H]5C[C@@H](O)[C@]5(C)[C@@H](C7=CC(=O)OC7)CC[C@]65O)C4)O[C@@H]3C)O[C@@H]2C)C[C@H](O)[C@@H]1O assignedclass="rule met"

Dear colleague, could you confirm whether "COC[C@H]1C[C@@H]2[C@H](CC[C@]3(C)C(=O)CC[C@@H]23)[C@@]2(C)CC/C(=N\O[C@@H]3CCNC3)C[C@H]12.O=C(O)/C=C/C(=O)O" has pIC50 at or above 6?
rule met

Dear colleague, could you confirm whether "C[C@]12CC/C(=N\OCCN)C[C@@H]1/C(=N/O)C[C@@H]1[C@@H]2CC[C@]2(C)C(=O)CC[C@@H]12.Cl" has pIC50 at or above 6?
rule met

Dear colleague, could you confirm whether "COC(=O)/C=C1\C[C@@H]2[C@H](CC[C@]3(C)C(=O)CC[C@@H]23)[C@@]2(C)CC/C(=N\OCCN)C[C@H]12" has pIC50 at or above 6?
rule not met

Dear colleague, could you confirm whether "C[C@]12CC/C(=N\O[C@@H]3CCNC3)C[C@@H]1C1(CC1)C[C@@H]1[C@@H]2CC[C@]2(C)C(=O)CC[C@@H]12" has pIC50 at or above 6?
rule met

----------
# procedureText: Inhibition of dog kidney Na+K+-ATPase assessed as hydrolysis of [32P]ATP
# Design: species or system Canis lupus familiaris
property: IC50 (nM)
Numbers only, in nM.

compoundstring=C[C@]12CC/C(=N\OCCN)C[C@@H]1[C@H](O[N+](=O)[O-])C[C@@H]1[C@@H]2CC[C@]2(C)C(=O)CC[C@@H]12 property=IC50 measureunit=nM result=2900

Value sought for every listed compound: IC50.
1. C[C@H]1C[C@@H]2[C@H](CC[C@]3(C)C(=O)CC[C@@H]23)[C@@]2(C)CC/C(=N\OCCN)C[C@H]12.Cl
2. CNCCCO/N=C1\CC[C@@]2(C)[C@H](C1)/C(=N/O)C[C@@H]1[C@@H]2CC[C@]2(C)C(=O)CC[C@@H]12.Cl
3. C[C@]12CC/C(=N\O[C@@H]3CCNC3)C[C@@H]1[C@@H](C(N)=O)C[C@@H]1[C@@H]2CC[C@]2(C)C(=O)CC[C@@H]12.Cl
4. COC(=O)[C@H]1C[C@@H]2[C@H](CC[C@]3(C)C(=O)CC[C@@H]23)[C@@]2(C)CC/C(=N\O[C@@H]3CCNC3)C[C@H]12.Cl
5. C/C=C1\C[C@@H]2[C@H](CC[C@]3(C)C(=O)CC[C@@H]23)[C@@]2(C)CC/C(=N\OCCN)C[C@H]12
6. C[C@]12CC/C(=N\OCCN)C[C@@H]1C(=C(F)F)C[C@@H]1[C@@H]2CC[C@]2(C)C(=O)CC[C@@H]12
7. C[C@H]1C[C@@H]2[C@H](CC[C@]3(C)C(=O)CC[C@@H]23)[C@@]2(C)CC/C(=N\O[C@@H]3CCNC3)C[C@H]12

[300, 200, 140, 160, 1100, 190, 340]
